Each entry below carries its recorded pIC50.
# Tested on: 889142-216-R-J1-PDC complex spheroid viability;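 further: spheroids exposed to compounds for seven days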
# testMethodNotes: Anticancer human tumor 889142-216-R-J1-PDC patient-derived bladder carcinoma cell line growth inhibition [POLQ]
# settings: curve of first compound; second compound 0.1 µM
pIC50: −log10 of the molar value.
endpoint: pIC50

| molecule | targetOrSystem | endpoint | result |
| --- | --- | --- | --- |
| CNCc1ccc(-c2[nH]c3cc(F)cc4c3c2CCNC4=O)cc1 + Cc1cccc(N(C)C(=O)C2C(O)CCN2c2nc(C)cc(C(F)(F)F)c2C#N)c1 | 889142-216-R-J1-PDC complex spheroid viability | pIC50 | < 5.00 |
| C=CC(=O)N1CCN(c2nc(=O)n(-c3c(C)ccnc3C(C)C)c3nc(-c4c(O)cccc4F)c(F)cc23)C(C)C1 (stereo not drawn) + COC1C(OC(N)=O)C(O)C(Oc2ccc3c(O)c(NC(=O)c4ccc(O)c(CC=C(C)C)c4)c(=O)oc3c2C)OC1(C)C | 889142-216-R-J1-PDC complex spheroid viability | pIC50 | < 5.00 |
| O=c1[nH]cc(F)c(=O)[nH]1 + Cc1cccc(N(C)C(=O)C2C(O)CCN2c2nc(C)cc(C(F)(F)F)c2C#N)c1 | 889142-216-R-J1-PDC complex spheroid viability | pIC50 | < 5.00 |
